system: Rattus norvegicus; test: Compound was tested for urinary volume excretion in conscious rat at the dose of 30 mg/kg expressed as urinary excretion in treated rats/urinary excretion in control rats; type: ADME, organism-based, Urine; parameters: dose 30 mg/kg; details: in vivo
measured.property: Urinary volume

Field: example entries. Status: answers known.
Oc1nc(O)c(Br)c(-c2ccccc2)n1 = 1.5
Nc1nc(=O)c(Br)c(-c2ccccc2)[nH]1 [BROPIRIMINE] = 2.6
NS(=O)(=O)c1cc2c(cc1Cl)NCNS2(=O)=O [HYDROCHLOROTHIAZIDE] = 2.6
Cn1c(N)nc(-c2ccccc2)c(Br)c1=O = 2.5
NS(=O)(=O)c1cc(C(=O)O)c(NCc2ccco2)cc1Cl [FUROSEMIDE] = 4.7

(a) Cn1c(-c2ccccc2)c(Cl)c(=O)[nH]c1=O
(b) Cn1c(N)nc(-c2ccccc2)c(I)c1=O
Lower value of Urinary volume belongs to which: a or b ? Identify your pick by its label.
a
(a: 1.6, b: 2.7)
